Data provenance is ChEMBL document CHEMBL1124310.

test system: Rattus norvegicus; test: Inhibitory activity against developing adjuvant-induced arthritis (Dev AA) in rat at 50 mg/kg concentration; type: functional
Would you please tag the item t when its inhibition in vivo at 50 mg/kg is 10% or above, and f when it is below?

Does the reported inhibition in vivo at 50 mg/kg for CC(C)(C)c1cc(/C=C/c2cccnc2)cc(C(C)(C)C)c1O fall at or above the 10% mark? t

Please give the result for Cc1ccc(/C=C/c2cc(C(C)(C)C)c(O)c(C(C)(C)C)c2)cc1 too. t

Likewise for CC(C)(C)c1cc(/C=C/c2cccs2)cc(C(C)(C)C)c1O ? t

And the next one, CC(C)(C)c1cc(/C=C/c2ccc(F)cc2)cc(C(C)(C)C)c1O ? t

Again, but for CC(C)(C)c1cc(/C=C/c2ccc(Cl)s2)cc(C(C)(C)C)c1O t

Thanks! And CC(C)(C)c1cc(/C=C/c2ccccc2)cc(C(C)(C)C)c1O ? t

Moving on to the next compound: COc1ccc(/C=C/c2cc(C(C)(C)C)c(O)c(C(C)(C)C)c2)cc1 f

Now this one: CC(C)(C)c1cc(/C=C/c2ccsc2)cc(C(C)(C)C)c1O t

Proceed to CC(C)(C)c1cc(/C=C/c2cccc(C(F)(F)F)c2)cc(C(C)(C)C)c1O f

Same thing, different compound: CC(C)(C)c1cc(/C=C/C(=O)c2ccsc2)cc(C(C)(C)C)c1O f

What would you report for COc1ccc(/C=C/c2cc(C(C)(C)C)c(O)c(C(C)(C)C)c2)cc1OC ? t

What do you get for CC(C)(C)c1cc(/C=C/c2ccncc2)cc(C(C)(C)C)c1O ? f

Next compound: CC(C)(C)c1cc(/C=C/c2ccc(Cl)cc2)cc(C(C)(C)C)c1O t

Record: CC(C)(C)c1cc(/C=C/c2ccccn2)cc(C(C)(C)C)c1O t

Now this one: CC(C)(C)c1cc(C(=O)/C=C/c2cccs2)cc(C(C)(C)C)c1O f

Now the compound CC(C)(C)c1cc(C(=O)/C=C/c2ccsc2)cc(C(C)(C)C)c1O t

Another compound: CC(C)(C)c1cc(/C=C/C(=O)c2cccs2)cc(C(C)(C)C)c1O f

Also need CCOC(=O)/C(=C\c1cc(C(C)(C)C)c(O)c(C(C)(C)C)c1)c1cccnc1 , thanks. t
